Data origin: the Human Domainome abundance scans (Beltran et al. 2025)

B1: POU domain, class 2, transcription factor 2, residues 200 to 269; numbered along this chain, P09086 (parent)
chain: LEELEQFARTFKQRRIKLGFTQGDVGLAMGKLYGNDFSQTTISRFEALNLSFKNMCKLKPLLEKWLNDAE

- Variants of: B1
- Measurement description: abundance fitness (aPCA) (normalised: wild type 0, dead -1); higher = more abundant; growth selection in yeast, the domain comes from the species named
- Recorded conditions: Homo sapiens
Recorded abundance fitness for the following variants
Would you mind answering with just the numeric figure?

Known results for variants:
Query: Determine its reported abundance fitness: `L50W`
Response: -0.183

Query: Determine its reported abundance fitness: `R44G`
Response: 0.008

Query: Determine its reported abundance fitness: `I42A`
Response: -0.609

Query: Determine its reported abundance fitness: `Q13K`
Response: -0.041

Next:
Query: Determine its reported abundance fitness: `F20I`
Response: -0.101

Query: Determine its reported abundance fitness: `G30K`
Response: -0.071
